Target: PDE peak A (PDE5) (Homo sapiens)
Construct: approximately four hundred million SW480 cells at confluence were scraped; endogenous in cells
Assay: Inhibition of cGMP hydrolysis by PDE peak A from SW480 cells

{"Molecule": "CCCCCC[C@H]([C@H](C)O)n1cnc2c(N)ncnc21 (relative stereo)", "IC50": "> 100 µM"}

---

Molecular target: COX-I (purified cyclooxygenase Type 1) (Ovis aries, UniProt P05979)
Sequence (P05979 25-600): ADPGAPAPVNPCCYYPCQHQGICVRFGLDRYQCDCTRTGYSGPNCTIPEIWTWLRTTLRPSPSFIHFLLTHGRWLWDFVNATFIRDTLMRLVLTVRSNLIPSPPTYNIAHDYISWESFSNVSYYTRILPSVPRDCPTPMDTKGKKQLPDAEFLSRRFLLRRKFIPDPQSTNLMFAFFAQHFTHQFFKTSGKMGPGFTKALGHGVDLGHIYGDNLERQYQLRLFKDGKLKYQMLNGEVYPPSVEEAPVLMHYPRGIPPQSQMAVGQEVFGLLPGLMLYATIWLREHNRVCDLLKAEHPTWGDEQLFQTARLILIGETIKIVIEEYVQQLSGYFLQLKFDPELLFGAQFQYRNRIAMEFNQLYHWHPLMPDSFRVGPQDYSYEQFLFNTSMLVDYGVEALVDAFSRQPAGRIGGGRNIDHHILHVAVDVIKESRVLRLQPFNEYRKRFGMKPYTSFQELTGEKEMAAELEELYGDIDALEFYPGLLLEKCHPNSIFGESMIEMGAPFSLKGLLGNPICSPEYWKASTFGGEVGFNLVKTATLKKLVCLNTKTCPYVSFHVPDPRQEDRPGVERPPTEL

{"Compound": "CC1=C(CC(=O)O)c2cc(F)ccc2/C1=C\\c1ccc(S(C)(=O)=O)cc1", "IC50": "> 10 mM"}
